Measured values drawn from PubChem BioAssay (NCI) for this set.

# Tested on: CAKI-1 renal
# assay comment: NCI-60 one-dose screen, 48 h (100 = growth as untreated, 0 = no growth, -100 = all killed)
# condition parameters: 10 µM unless noted
Compounds without any hit were thinned out: in the full panel of roughly 83,000, 20% have a hit.
Recorded measurements of growth, one per entry
assay metric: growth (%)

INSERT INTO assay_data (compound, quantitative_result) VALUES
  ('c1ccc(C(=NNc2nc3ccccc3o2)c2ccccn2)nc1', 5.09),
  ('Cc1c(C(N)=O)sc2c1c(=O)n(Cc1ccccc1)c1nnc(S(C)(=O)=O)n21', 86.5),
  ('COc1ccccc1C(=O)Nc1cccc(-c2cc(=O)c3c(OC)c(OC)c(OC)cc3o2)c1', 65.1),
  ('CC(O)CCC(C)[N+](=O)[O-] (centres undefined)', 104),
  ('CC(C)(C)c1ccc([I+]c2ccc(C(C)(C)C)cc2)cc1', 87.6),
  ('O=C(O)/C(Br)=C/c1c[nH]c2ccc(Br)cc12', 97.6),
  ('COc1ccc(Cn2cc3c(c2-c2ccc(OC)cc2)CCc2cnoc2-3)cc1', 14.8),
  ('Cc1ccc(OCCn2ccc(=O)n(CCOc3ccc(Cl)cc3C(=O)c3cc(C)cc(C)c3)c2=O)cc1', 47.6),
  ('COCC(=O)NNc1[nH]c(-c2ccc(OC)cc2)cc1C#N', 105);

---

# Test system: SF-539 CNS
# assay comment: NCI-60 one-dose screen, 48 h (100 = growth as untreated, 0 = no growth, -100 = all killed)
# condition parameters: 10 µM unless noted
Compounds without any hit were thinned out: in the full panel of roughly 83,000, 20% have a hit. Activity calls are given as the source filed them. Rule for the calls: active = growth percent below 10; inactive = the rest.
Documented growth across a set of compounds
assay metric: growth

INSERT INTO assay_data (compound, assay_metric, result) VALUES
  ('Cc1ncc(C(=O)Nc2ccc(CN3CCN(C)CC3)c(C(F)(F)F)c2)cc1C#Cc1cnc(NC2CC2)c2ncccc12', 'growth', '-98.3% (active)'),
  ('CCN(CC)CCCNc1c2ccc(Cl)cc2nc2ccc(OC)cc12', 'growth', '-65.7% (active)'),
  ('O=c1c2c(c3ccccc3n1-c1ccccc1)NC(=S)NC2c1ccc(Cl)cc1 (stereo unspecified)', 'growth', '21.2% (inactive)'),
  ('COC(=O)[C@H](Cc1cn(C)cn1)NC(=O)[C@H](CC(=O)OCc1ccccc1)NC(=O)Nc1cc(C(F)(F)F)cc(C(F)(F)F)c1', 'growth', '-94.6% [100 µM] (active)'),
  ('COc1ccc2oc(=O)cc(CN3C(=O)S/C(=C\c4ccc(Cl)cc4)C3=O)c2c1', 'growth', '99.6% (inactive)'),
  ('COC(=O)/C=C/c1cc(O)c2oc(-c3ccc(O)c(O)c3)c(C(=O)OC)c2c1', 'growth', '2.83% (active)'),
  ('c1ccc(C(=NNc2nc3ccccc3o2)c2ccccn2)nc1', 'growth', '2.62% (active)'),
  ('CCOC(=O)c1c2c(cn1Cc1ccccc1)-c1oncc1CC2', 'growth', '86% (inactive)'),
  ('COC(=O)/C=C1/CCCCC1(C)C(=O)OC (stereo unspecified)', 'growth', '119% (inactive)'),
  ('CCCCCCCCCCCCCCCCNC(=S)N/N=C/c1ccc(O)cc1O', 'growth', '110% (inactive)'),
  ('COC(=O)[C@H](Cc1cn(C)cn1)NC(=O)[C@H](Cc1c[nH]c2ccccc12)NC(=O)Nc1cc(C(F)(F)F)cc(C(F)(F)F)c1', 'growth', '-69.1% [100 µM] (active)'),
  ('CC1(C)N=C(N)N=C(N)N1c1cccc(CCCCOc2ccccc2)c1', 'growth', '34.1% (inactive)'),
  ('COc1cc(/C(=C2/O[C@@H]([C@H]3COC(C)(C)O3)[C@H]3OC(C)(C)O[C@@H]23)c2ccc3c(c2)OCO3)cc(OC)c1OC', 'growth', '25.2% (inactive)'),
  ('C=C[C@]1(C)C=C2C(=O)[C@@]3(O)OC[C@@]4(CCCC(C)(C)C43O)C2(O)C(O)C1 (stereo partly specified)', 'growth', '66.2% (inactive)'),
  ('CCC1(CC)C(OC)NC(Br)=C(C#N)C1(C#N)C(N)=O (stereo unspecified)', 'growth', '93.9% (inactive)'),
  ('COC(=O)C(C(=O)OC)C(Br)C(Br)C(Br)c1ccccc1 (stereo unspecified)', 'growth', '98% (inactive)'),
  ('C[C@]12C=CC(=O)C=C1[C@@H](F)C[C@@H]1[C@@H]2[C@@H](O)C[C@@]2(C)[C@H]1CC[C@]2(O)C(=O)CO', 'growth', '96.1% (inactive)'),
  ('Cn1c2c(cc(S(=O)(=O)c3ccccc3)c1=O)CCc1c-2cnn1-c1ccc(Cl)cc1', 'growth', '-19% (active)'),
  ('COc1ccc(-c2nc(SCC(C)C)nc(Nc3ccc([N+](=O)[O-])cc3)c2C#N)cc1', 'growth', '99.8% (inactive)'),
  ('CCOC(=O)c1c(C)oc2ncnc(Nc3ccc(C(=O)NCCc4ccccc4)cc3)c12', 'growth', '58.9% (inactive)'),
  ('Nc1nc(-c2cccc(Br)c2)cc(-c2cc3ccccc3oc2=O)n1', 'growth', '110% (inactive)'),
  ('O=C(O)CC1Cc2ccccc2C1C(=O)O (stereo unspecified)', 'growth', '99.1% (inactive)'),
  ('O=C(/C=C/c1c[nH]c2ccccc12)c1cc2ccccc2o1', 'growth', '82.1% (inactive)'),
  ('O=Nc1ccc(O)c2ccccc12', 'growth', '0.651% (active)'),
  ('CCCCCCN(CCCCCC)CCC(=O)Nc1ccc(S(=O)(=O)c2ccc(NC(=O)CCN(CCCCCC)CCCCCC)cc2)cc1', 'growth', '94.7% (inactive)'),
  ('COC1=C(OC)C(=O)c2ccccc2C1=O', 'growth', '102% (inactive)'),
  ('CC([C@H]1CCC2C3CCC4C[C@@H](N)CC[C@]4(C)C3CC[C@@]21C)N(C)C (stereo partly specified)', 'growth', '13.1% (inactive)'),
  ('O=Nc1c(-c2c(O)[nH]c3cc(Br)ccc23)[nH]c2ccccc12', 'growth', '-44.8% (active)'),
  ('CC1C(=O)CCCC1=O', 'growth', '98.9% (inactive)'),
  ('COc1ccc(/C=C(/C(=O)N2CCCCC2)c2cc(OC)c(OC)c(OC)c2)cc1', 'growth', '-10.5% (active)'),
  ('C/C(=N\Nc1ccc(Cl)cn1)c1ccc2ccccc2n1', 'growth', '3.44% (active)'),
  ('COc1ccc2sc(-n3nc4nc5n(c(=O)c4c3N)-c3ccccc3Sc3ccccc3-5)nc2c1', 'growth', '104% (inactive)'),
  ('O=C(/C=C/c1cccc(O)c1)c1cccc(-n2cc(-c3ccc(Cl)cc3)[nH]c2=O)c1', 'growth', '-89.7% (active)'),
  ('COc1ccc2c(c1)/C(=C1/S/C(=N/c3nnc(C)s3)NC1=O)C(=O)N2Cc1ccc(Br)cc1', 'growth', '42.7% (inactive)'),
  ('CCCCN(CCC)CCCCCCCCCCN1CCCc2ccccc21', 'growth', '101% (inactive)'),
  ('CC[N+](C)(C)N', 'growth', '109% (inactive)'),
  ('CC(=O)c1nn(-c2ccc(C)cc2)cc1C(=O)c1cc2c(ccc3ccccc32)oc1=O', 'growth', '94.1% (inactive)'),
  ('CCCCCCCCCC[N+](C)(C)C', 'growth', '1.4% (active)'),
  ('CN(C)CCOC(=O)C(C)(C)C', 'growth', '109% (inactive)'),
  ('CCCCCCCCC(=O)Nc1ccc(O)cc1', 'growth', '88.9% (inactive)'),
  ('O=C(c1ccccc1)c1ccccc1-c1ccccc1', 'growth', '20.4% (inactive)');
